Some molecules, each annotated with its measured Hu LTBP3-proTGFβ1 Kon.
# tested system: huLTBP3 proTGFβ1 (Homo sapiens, UniProt P01137+Q9NS15)
# Sequence (P01137 30-390): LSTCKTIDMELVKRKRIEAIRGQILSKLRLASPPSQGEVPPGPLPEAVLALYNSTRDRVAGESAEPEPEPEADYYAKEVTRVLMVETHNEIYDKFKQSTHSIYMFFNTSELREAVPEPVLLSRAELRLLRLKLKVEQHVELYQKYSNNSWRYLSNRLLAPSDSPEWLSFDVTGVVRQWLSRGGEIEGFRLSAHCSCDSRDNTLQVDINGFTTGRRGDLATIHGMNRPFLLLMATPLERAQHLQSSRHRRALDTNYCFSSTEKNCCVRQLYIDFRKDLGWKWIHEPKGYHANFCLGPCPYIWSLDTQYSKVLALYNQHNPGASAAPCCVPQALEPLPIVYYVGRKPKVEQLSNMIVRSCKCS
# Sequence (Q9NS15 44-1303): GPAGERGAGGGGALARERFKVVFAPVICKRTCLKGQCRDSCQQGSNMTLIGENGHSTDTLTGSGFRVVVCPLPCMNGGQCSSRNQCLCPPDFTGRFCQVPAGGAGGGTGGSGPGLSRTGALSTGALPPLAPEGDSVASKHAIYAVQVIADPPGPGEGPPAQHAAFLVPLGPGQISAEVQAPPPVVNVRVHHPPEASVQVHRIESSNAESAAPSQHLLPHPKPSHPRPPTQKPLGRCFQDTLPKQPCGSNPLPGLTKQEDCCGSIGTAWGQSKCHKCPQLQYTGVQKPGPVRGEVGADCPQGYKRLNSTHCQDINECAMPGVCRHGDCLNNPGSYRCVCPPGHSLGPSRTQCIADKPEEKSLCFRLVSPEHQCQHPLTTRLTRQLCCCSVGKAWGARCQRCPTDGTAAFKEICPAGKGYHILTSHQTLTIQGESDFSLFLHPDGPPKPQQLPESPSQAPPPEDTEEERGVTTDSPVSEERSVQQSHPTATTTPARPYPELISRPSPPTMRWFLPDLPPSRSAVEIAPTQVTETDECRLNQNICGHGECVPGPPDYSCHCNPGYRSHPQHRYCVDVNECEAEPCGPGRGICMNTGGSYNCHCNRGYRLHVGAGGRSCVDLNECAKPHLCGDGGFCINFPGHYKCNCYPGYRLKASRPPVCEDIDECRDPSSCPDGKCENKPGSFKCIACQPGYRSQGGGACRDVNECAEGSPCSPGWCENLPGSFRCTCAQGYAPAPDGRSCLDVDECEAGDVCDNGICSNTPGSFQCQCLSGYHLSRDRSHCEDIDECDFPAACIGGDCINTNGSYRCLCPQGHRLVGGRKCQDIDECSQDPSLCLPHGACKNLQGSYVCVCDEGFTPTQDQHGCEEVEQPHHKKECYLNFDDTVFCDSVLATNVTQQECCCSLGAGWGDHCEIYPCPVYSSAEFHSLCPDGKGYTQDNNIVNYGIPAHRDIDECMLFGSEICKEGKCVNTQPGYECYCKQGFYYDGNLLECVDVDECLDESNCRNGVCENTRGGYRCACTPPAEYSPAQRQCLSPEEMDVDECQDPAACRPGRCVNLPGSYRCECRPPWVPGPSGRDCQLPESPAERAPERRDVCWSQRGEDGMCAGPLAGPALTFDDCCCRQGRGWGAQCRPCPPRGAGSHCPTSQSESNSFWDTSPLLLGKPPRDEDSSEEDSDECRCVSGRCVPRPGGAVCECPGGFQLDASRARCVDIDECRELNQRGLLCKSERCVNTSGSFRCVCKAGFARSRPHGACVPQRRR
# assay remarks: Octet (BLI) binding, IgG captured on AHC tips, antigen at 100 nM
# test context: Table 9; cycle 3; IgG1-agly; 1:1 fit
Numeric answer only, unit M⁻¹ s⁻¹ assumed.

{"molecule": "SR-AB64: cycle 3 light chain-optimized antibody, lineage SR-AB26; CDRs SEQ ID NO: 298-303 (antibody, V domains shown) VH: QLQLQESGPGLVKPSETLSLTCTVSGGSIRSSSYYWGWIRQPPGKGLEWIGSISYSATTYYNPSLKSRVTISVDTSKNQFSLKLSSVTAADTAVYYCAGDPSYDSIAGMQVWGQGTTVTVSS VL: DIQMTQSPSSLSASVGDRVTITCRASQSISYYLNWYQQKPGKAPKLLIYSASSRQSGVPSRFSGSGSGTDFTLTISSLQPEDFATYYCQQGFDFPLTFGGGTKVEIK", "measurement name": "Hu LTBP3-proTGFβ1 Kon", "u": "M⁻¹ s⁻¹", "quantitative result": 195000}

Query :: Give its Hu LTBP3-proTGFβ1 Kon value. Item: SR-AB44: cycle 3 light chain-optimized antibody, lineage SR-AB23; CDRs SEQ ID NO: 178-183 (antibody, V domains shown) VH: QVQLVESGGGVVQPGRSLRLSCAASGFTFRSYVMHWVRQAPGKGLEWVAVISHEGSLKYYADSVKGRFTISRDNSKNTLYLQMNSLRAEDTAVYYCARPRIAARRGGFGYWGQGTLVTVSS VL: NFMLTQPHSVSESPGKTVTISCTRSHGNIDDNYVQWYQQRPGSSPTTVIYEDNVRPSGVPDRFSGSIDSSSNSASLTISGLKTEDEADYYCQSYDSDNQLVVFGGGTKLTVL
Result :: 410000

Query :: // returns reported Hu LTBP3-proTGFβ1 Kon for input SR-AB37: cycle 3 light chain-optimized antibody, lineage SR-AB22; CDRs SEQ ID NO: 136-141 (antibody, V domains shown) VH: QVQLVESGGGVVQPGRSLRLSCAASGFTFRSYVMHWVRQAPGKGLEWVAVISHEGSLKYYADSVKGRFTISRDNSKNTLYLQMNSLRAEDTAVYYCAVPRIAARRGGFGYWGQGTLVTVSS VL: NFMLTQPHSVSESPGKTVTISCTRSSGLIDDNYVQWYQQRPGSSPTTVIYEDNQRPSGVPDRFSGSIDSSSNSASLTISGLKTEDEADYYCQSYDSDLQRVVFGGGTKLTVL
Result :: 545000

Query :: So what's the measured Hu LTBP3-proTGFβ1 Kon for this one? SR-AB45: cycle 3 light chain-optimized antibody, lineage SR-AB23; CDRs SEQ ID NO: 184-189 (antibody, V domains shown) VH: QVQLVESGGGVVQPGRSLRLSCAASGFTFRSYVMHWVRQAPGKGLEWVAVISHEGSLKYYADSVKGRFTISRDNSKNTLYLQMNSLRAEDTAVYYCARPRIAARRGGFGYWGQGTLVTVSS VL: NFMLTQPHSVSESPGKTVTISCTRSSGAIDDNYVQWYQQRPGSSPTTVIYEDFQRPSGVPDRFSGSIDSSSNSASLTISGLKTEDEADYYCQSYDDDLQGVVFGGGTKLTVL
Result :: 491000

Data credit: patent US11214614B2
